Taken from the supplement of paper PMC12667976.

B1: library; numbered along this chain (parent)
chain: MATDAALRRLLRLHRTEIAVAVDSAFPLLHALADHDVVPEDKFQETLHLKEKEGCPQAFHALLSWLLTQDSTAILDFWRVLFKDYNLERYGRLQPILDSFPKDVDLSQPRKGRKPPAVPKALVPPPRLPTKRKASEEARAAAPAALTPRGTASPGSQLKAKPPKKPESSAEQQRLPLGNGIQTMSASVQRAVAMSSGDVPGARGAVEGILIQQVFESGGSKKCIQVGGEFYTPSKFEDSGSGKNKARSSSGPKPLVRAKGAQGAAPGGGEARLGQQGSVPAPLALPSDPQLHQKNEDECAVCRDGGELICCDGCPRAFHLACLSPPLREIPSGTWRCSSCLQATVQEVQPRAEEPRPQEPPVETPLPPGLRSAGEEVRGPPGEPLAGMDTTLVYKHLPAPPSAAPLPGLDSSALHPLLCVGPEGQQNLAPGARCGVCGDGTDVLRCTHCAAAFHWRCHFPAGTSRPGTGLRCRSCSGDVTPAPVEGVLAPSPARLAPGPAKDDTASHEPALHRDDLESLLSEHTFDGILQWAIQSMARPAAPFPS

Variants of: B1
Test: AIRE transcriptional activation functional score (insulin promoter-GFP; nonsense median 0, synonymous median 1) (normalised score); higher = higher AIRE activity (more reporter activation)
Details: with insulin promoter-GFP reporter in HEK293
AIRE transcriptional activation functional score vs 0.9: at or above is true (1), below is false (0).

Completed entries (count: 5):
K111A    true (1)
T390C    false (0)
S239M    true (1)
P162E    false (0)
A144W    true (1)

Is AIRE transcriptional activation functional score for I528N at or above 0.9?
false (0)

Could you verify whether the entry G431E shows AIRE transcriptional activation functional score of no less than 0.9?
false (0)

Confirm if AIRE transcriptional activation functional score reported for the variant D439H is 0.9 or above.
true (1)

Tell me whether AIRE transcriptional activation functional score is at least 0.9 here: P163E
false (0)

Please indicate if the recorded AIRE transcriptional activation functional score for Q275H meets or exceeds 0.9.
true (1)

Reported AIRE transcriptional activation functional score at or above 0.9? L62S
false (0)

Could you please find out whether T504K has AIRE transcriptional activation functional score that meets 0.9 or exceeds it?
true (1)

Reported AIRE transcriptional activation functional score at or above 0.9? V484I
true (1)

Does AIRE transcriptional activation functional score meet or surpass 0.9 for T364I ?
false (0)

Textbook exercise: given the entry A532L , state whether its AIRE transcriptional activation functional score is greater than or equal to 0.9.
true (1)
